Where do the numbers come from? From ChEMBL document CHEMBL3988442.

Molecular target: Proteasome subunit beta (Trypanosoma cruzi)
Sequence (whole entry): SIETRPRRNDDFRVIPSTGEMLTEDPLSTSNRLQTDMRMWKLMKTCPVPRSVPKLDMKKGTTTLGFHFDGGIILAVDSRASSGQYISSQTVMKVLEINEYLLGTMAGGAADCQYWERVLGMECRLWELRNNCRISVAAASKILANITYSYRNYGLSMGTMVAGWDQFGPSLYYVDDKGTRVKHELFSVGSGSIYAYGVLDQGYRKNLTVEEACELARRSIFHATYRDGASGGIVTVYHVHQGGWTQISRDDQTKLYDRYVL
Test: Trypanosoma cruzi proteasome chymotrypsin-like activity (TcProtChymo) assay.
Assay type: functional
Set-up: scale not given: in the data most compounds retested in dose-response had high values
Conditions: 9.37 µM
Measurement Name: Percent Effect (%)
Unit % implied. Number only.

Cc1ccc(=O)n(CC2(O)CCN(Cc3ccsc3)CC2)n1
12.9
Cc1ccc2c(c1)CN(C(=O)C1CCCCC1)C(CN(C)C)CO2 (configuration not stated)
12
CSc1ccsc1C(=O)N1CCN(CC(C)(C)O)CC1
4.29
CC[C@@H](CO)NC(=O)c1coc(COc2ccc(OC)cc2)n1
5.58
NC(=O)c1ccc(CN2CCCC(O)C2)cc1 (configuration not stated)
17.2
Cc1nnc(N2C[C@H](C(=O)NCC3CC3)[C@@H]3CCO[C@@H]3C2)s1
0.696
c1cnn(-c2ccc(CN3CCOC(Cn4cncn4)C3)cc2)c1 (configuration not stated)
-2.21
CC(Cn1cncn1)NCc1nncn1C1CCCCC1 (configuration not stated)
14.4
NC(=O)c1cnn2c1NCC(CNCCCOc1ccccc1F)C2 (configuration not stated)
0.167
COc1ccc(CCN2CCc3c(nc(C4CC4)n3C)C2)cc1
9.12

Item: CCc1cc(NCCNc2cccnc2)n2nccc2n1 | System: Proteasome subunit beta (Trypanosoma cruzi) | Percent Effect: 10

Item: Cc1cnn(CC2CN(Cc3nc(-c4ccoc4)no3)CCO2)c1 (configuration not stated) | System: Proteasome subunit beta (Trypanosoma cruzi) | Percent Effect: 2.16
